biological target: stearoyl-CoA desaturase (SCD) (Rattus norvegicus, UniProt P07308); assay: SCD assay, rat liver microsomes with [3H]stearoyl CoA (adapted from Talamo and Bloch); conditions: second table, same SCD assay
Sequence (P07308 whole entry): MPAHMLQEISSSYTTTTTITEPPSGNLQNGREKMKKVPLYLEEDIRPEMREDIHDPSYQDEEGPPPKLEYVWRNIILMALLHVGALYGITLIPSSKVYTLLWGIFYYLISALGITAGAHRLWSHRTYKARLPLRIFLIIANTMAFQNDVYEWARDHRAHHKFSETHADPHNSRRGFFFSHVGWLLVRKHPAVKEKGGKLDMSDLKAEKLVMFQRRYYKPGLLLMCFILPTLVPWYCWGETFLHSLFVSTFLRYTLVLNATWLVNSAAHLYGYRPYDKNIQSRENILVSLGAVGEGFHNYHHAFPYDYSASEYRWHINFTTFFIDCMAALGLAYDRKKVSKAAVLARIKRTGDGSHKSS
Value kind: IC50

Query: Kindly state the measured IC50 obtained for CC(=O)NCCn1c(=O)c(-c2ccc(F)cc2)nc2ccc(NCc3cccc(C(F)(F)F)c3)nc21 with stearoyl-CoA desaturase (SCD) (Rattus norvegicus, UniProt P07308).
Response: 390 nM

Query: Please provide the recorded IC50 for COc1ccc(-c2nc3ccc(NCc4cc(C(F)(F)F)ccn4)nc3n(CCNC(C)=O)c2=O)cc1 , tested on stearoyl-CoA desaturase (SCD) (Rattus norvegicus, UniProt P07308).
Response: 180 nM

Query: Which measured IC50 belongs to Cc1nc2ccc(NCc3cccc(C(F)(F)F)c3)cc2n(CCNC(=O)CCO)c1=O , tested on stearoyl-CoA desaturase (SCD) (Rattus norvegicus, UniProt P07308)?
Response: 1100 nM

Query: Form: Entry = COc1ccc(-c2nc3ccc(NCc4ccc(C)c(C)c4)cc3n(CCNC(C)=O)c2=O)cc1 | System = stearoyl-CoA desaturase (SCD) (Rattus norvegicus, UniProt P07308) | IC50 = ____
Response: 26 nM

Query: Form entry - test system: stearoyl-CoA desaturase (SCD) (Rattus norvegicus, UniProt P07308); read-out: IC50; compound: COc1ccc(-c2nc3ccc(NCc4cccc(C)c4)nc3n(CCNC(C)=O)c2=O)cc1
Response: 380 nM

Query: Which measured IC50 belongs to CNC(=O)CCn1c(=O)c(-c2ccc(OC)cc2)nc2ccc(NCc3cccc(C(F)(F)F)c3)nc21 , tested on stearoyl-CoA desaturase (SCD) (Rattus norvegicus, UniProt P07308)?
Response: 360 nM

Query: So what IC50 did CC(=O)NCCN1C(=O)C(C)Nc2cc(NC(=O)OCc3ccccc3)cnc21 (stereo not drawn) get with stearoyl-CoA desaturase (SCD) (Rattus norvegicus, UniProt P07308)?
Response: 240 nM

Query: // fetch stearoyl-CoA desaturase (SCD) (Rattus norvegicus, UniProt P07308) IC50 for Cc1nc2ccc(NCc3cccc(C(F)(F)F)c3)nc2n(CCCC(N)=O)c1=O
Response: 1600 nM

Query: Quick check: IC50 on stearoyl-CoA desaturase (SCD) (Rattus norvegicus, UniProt P07308), item CC(=O)NCCn1c(=O)cnc2ccc(NCc3ccc(Cl)c(Cl)c3)nc21 ?
Response: 510 nM

Query: Observed IC50 on stearoyl-CoA desaturase (SCD) (Rattus norvegicus, UniProt P07308) for CCc1ccc(-c2nc3ccc(NCc4cccc(C(F)(F)F)c4)nc3n(CCNC(C)=O)c2=O)cc1 , please.
Response: 93 nM

Query: Please state recorded IC50 (tested on stearoyl-CoA desaturase (SCD) (Rattus norvegicus, UniProt P07308)) of COc1ccc(-c2nc3cc(NC(=O)OCc4ccccc4)ccc3n(CCNC(C)=O)c2=O)cc1
Response: 20000 nM

Query: Hello, I am looking for reported IC50 with stearoyl-CoA desaturase (SCD) (Rattus norvegicus, UniProt P07308) for CCOC(=O)c1nc2ccc(NCc3cccc(C(F)(F)F)c3)nc2n(CCNC(C)=O)c1=O . Could you help?
Response: 6700 nM

Query: Query for stearoyl-CoA desaturase (SCD) (Rattus norvegicus, UniProt P07308): what IC50 does the record show for CC(=O)NCCn1c(=O)c(C)nc2cc(NCc3ccccc3)cnc21 ?
Response: 1100 nM

Query: Request: IC50, test system stearoyl-CoA desaturase (SCD) (Rattus norvegicus, UniProt P07308), entry COCCOc1ccc(-c2nc3ccc(NCc4cccc(C(F)(F)F)c4)nc3n(CCNC(C)=O)c2=O)cc1
Response: 230 nM

Query: Lab note: need IC50 for CC(=O)NCCn1c(=O)c(-c2ccc(NC(C)=O)cc2)nc2ccc(NCc3cccc(C(F)(F)F)c3)nc21 on stearoyl-CoA desaturase (SCD) (Rattus norvegicus, UniProt P07308), anyone have it?
Response: 4300 nM

Query: API: value(readout=IC50, system=stearoyl-CoA desaturase (SCD) (Rattus norvegicus, UniProt P07308)) for record COc1ccc(-c2nc3ccc(NCc4ccccc4)nc3n(CCNC(C)=O)c2=O)cc1
Response: 840 nM

Query: For the record CCCc1ccc(-c2nc3ccc(NCc4cccc(C(F)(F)F)c4)nc3n(CCNC(C)=O)c2=O)cc1 , what value of IC50 is listed for stearoyl-CoA desaturase (SCD) (Rattus norvegicus, UniProt P07308)?
Response: 100 nM

Query: Request body: readout IC50, system stearoyl-CoA desaturase (SCD) (Rattus norvegicus, UniProt P07308), query COc1ccc(-c2nc3ccc(NCc4ccc(Cl)c(Cl)c4)nc3n(CCCC(N)=O)c2=O)cc1 . Return the value.
Response: 150 nM

Query: # value lookup — system stearoyl-CoA desaturase (SCD) (Rattus norvegicus, UniProt P07308), readout IC50, item Cc1nc2ccc(NCc3cccc(C(F)(F)F)c3)cc2n(CCC(=O)NCCO)c1=O
Response: 230 nM

Query: Param readout = IC50; param system = stearoyl-CoA desaturase (SCD) (Rattus norvegicus, UniProt P07308); param query = COc1ccc(-c2nc3ccc(NCc4cccc(C(F)(F)F)c4)nc3n(NC(=O)COC(C)=O)c2=O)cc1 ; response: value
Response: 6700 nM

Query: # value lookup — system stearoyl-CoA desaturase (SCD) (Rattus norvegicus, UniProt P07308), readout IC50, item COc1ccc(-c2nc3ccc(NCc4ccc(Cl)c(Cl)c4)nc3n(CCNC(=O)CN(C)C)c2=O)cc1
Response: 12000 nM

Query: API: value(readout=IC50, system=stearoyl-CoA desaturase (SCD) (Rattus norvegicus, UniProt P07308)) for record COc1ccc(-c2nc3ccc(NCc4cc(C(F)(F)F)ccn4)cc3n(CCNC(C)=O)c2=O)cc1
Response: 39 nM

Query: // map COc1ccc(-c2nc3ccc(NCc4ccc(Cl)c(Cl)c4)nc3n(CCNC(=O)COC(C)=O)c2=O)cc1 to recorded IC50 (system: stearoyl-CoA desaturase (SCD) (Rattus norvegicus, UniProt P07308))
Response: 120 nM

Query: Item COc1ccc(-c2nc3ccc(NCc4ccc(F)c(C)c4)cc3n(CCNC(C)=O)c2=O)cc1 with stearoyl-CoA desaturase (SCD) (Rattus norvegicus, UniProt P07308) - IC50?
Response: 5 nM

Query: Under stearoyl-CoA desaturase (SCD) (Rattus norvegicus, UniProt P07308): IC50 value of COc1ccc(-c2nc3ccc(NCc4cccc(C(F)(F)F)n4)nc3n(CCNC(C)=O)c2=O)cc1 ?
Response: 10000 nM

Query: Can you look up IC50 on stearoyl-CoA desaturase (SCD) (Rattus norvegicus, UniProt P07308) for COc1ccc(-c2nc3cc(NCc4ccc(Cl)c(Cl)c4)cnc3n(CCNC(C)=O)c2=O)cc1 ?
Response: 2200 nM

Query: Entry COc1ccc(-c2nc3ccc(NCc4cccc(F)c4)nc3n(CCNC(C)=O)c2=O)cc1 , system stearoyl-CoA desaturase (SCD) (Rattus norvegicus, UniProt P07308): what IC50 was measured?
Response: 18000 nM

Query: # returns recorded IC50 (system: stearoyl-CoA desaturase (SCD) (Rattus norvegicus, UniProt P07308)) for CONC(=O)CCn1c(=O)c(-c2ccc(OC)cc2)nc2ccc(NCc3cccc(C(F)(F)F)c3)nc21
Response: 930 nM

Query: Quick check: IC50 on stearoyl-CoA desaturase (SCD) (Rattus norvegicus, UniProt P07308), item COC(=O)c1cccc(CNc2ccc3nc(-c4ccc(OC)cc4)c(=O)n(CCNC(C)=O)c3n2)c1 ?
Response: 19000 nM

Query: Request - read-out IC50 | tested on stearoyl-CoA desaturase (SCD) (Rattus norvegicus, UniProt P07308) | compound COc1ccc(-c2nc3ccc(NCc4ccc(Cl)c(Cl)c4)nc3n(CCNC(=O)CNC(C)=O)c2=O)cc1
Response: 1100 nM
